- System: HT29 colon
- assay_notes: NCI-60 one-dose screen, 48 h (100 = growth as untreated, 0 = no growth, -100 = all killed)
- assay_context: 10 µM unless noted
Compounds without any hit were thinned out: in the full panel of roughly 83,000, 20% have a hit.
endpoint_name: growth (%)

> print(dat)
                                   molecule   tested.on  test.value
1  CCn1c2ccccc2c2cc(C(O)c3cccc4ncccc34)ccc21 (centres undefined)  HT29 colon        8.32
2     CN(C)C(=O)OCc1ccc2c(Cl)cc(Cl)c(O)c2n1  HT29 colon          94
3  CC/C(=C(/c1ccc(Cl)cc1)c1ccc(OCCN2CCCCCC2)cc1)c1ccccc1  HT29 colon          17
4  COc1cc(/C=C2\CN(S(=O)(=O)c3ccc(C)cc3)C/C(=C\c3cc(CN4CCCC4)c(O)c(OC)c3)C2=O)cc(CN2CCCC2)c1O  HT29 colon       -60.7
5  COc1cc(NC(=O)c2cncnc2Nc2ccc3c(ccn3Cc3cccc(F)c3)c2)cc(OC)c1  HT29 colon          20
6  CCN(CC)CCOc1ccc(/C(=C(\C)Cc2ccc(OC)cc2)c2ccc(O)cc2)cc1  HT29 colon       -70.5
7  O=C(CNc1ncco1)Nc1ccc(S(=O)(=O)c2ccc(NC(=O)CNc3ncco3)cc2)cc1  HT29 colon       -93.2
8                Cc1ccc(Nc2cc(N)nc(N)n2)cc1  HT29 colon         103
9  Nc1c(C(=O)c2ccc(Cl)cc2)sc(Nc2ccccc2)c1-c1nc2ccccc2s1  HT29 colon        17.9
